# target_or_system: human KDR (VEGFR2) on cells (human, UniProt P35968 20-1356)
# Sequence (P35968 20-1356): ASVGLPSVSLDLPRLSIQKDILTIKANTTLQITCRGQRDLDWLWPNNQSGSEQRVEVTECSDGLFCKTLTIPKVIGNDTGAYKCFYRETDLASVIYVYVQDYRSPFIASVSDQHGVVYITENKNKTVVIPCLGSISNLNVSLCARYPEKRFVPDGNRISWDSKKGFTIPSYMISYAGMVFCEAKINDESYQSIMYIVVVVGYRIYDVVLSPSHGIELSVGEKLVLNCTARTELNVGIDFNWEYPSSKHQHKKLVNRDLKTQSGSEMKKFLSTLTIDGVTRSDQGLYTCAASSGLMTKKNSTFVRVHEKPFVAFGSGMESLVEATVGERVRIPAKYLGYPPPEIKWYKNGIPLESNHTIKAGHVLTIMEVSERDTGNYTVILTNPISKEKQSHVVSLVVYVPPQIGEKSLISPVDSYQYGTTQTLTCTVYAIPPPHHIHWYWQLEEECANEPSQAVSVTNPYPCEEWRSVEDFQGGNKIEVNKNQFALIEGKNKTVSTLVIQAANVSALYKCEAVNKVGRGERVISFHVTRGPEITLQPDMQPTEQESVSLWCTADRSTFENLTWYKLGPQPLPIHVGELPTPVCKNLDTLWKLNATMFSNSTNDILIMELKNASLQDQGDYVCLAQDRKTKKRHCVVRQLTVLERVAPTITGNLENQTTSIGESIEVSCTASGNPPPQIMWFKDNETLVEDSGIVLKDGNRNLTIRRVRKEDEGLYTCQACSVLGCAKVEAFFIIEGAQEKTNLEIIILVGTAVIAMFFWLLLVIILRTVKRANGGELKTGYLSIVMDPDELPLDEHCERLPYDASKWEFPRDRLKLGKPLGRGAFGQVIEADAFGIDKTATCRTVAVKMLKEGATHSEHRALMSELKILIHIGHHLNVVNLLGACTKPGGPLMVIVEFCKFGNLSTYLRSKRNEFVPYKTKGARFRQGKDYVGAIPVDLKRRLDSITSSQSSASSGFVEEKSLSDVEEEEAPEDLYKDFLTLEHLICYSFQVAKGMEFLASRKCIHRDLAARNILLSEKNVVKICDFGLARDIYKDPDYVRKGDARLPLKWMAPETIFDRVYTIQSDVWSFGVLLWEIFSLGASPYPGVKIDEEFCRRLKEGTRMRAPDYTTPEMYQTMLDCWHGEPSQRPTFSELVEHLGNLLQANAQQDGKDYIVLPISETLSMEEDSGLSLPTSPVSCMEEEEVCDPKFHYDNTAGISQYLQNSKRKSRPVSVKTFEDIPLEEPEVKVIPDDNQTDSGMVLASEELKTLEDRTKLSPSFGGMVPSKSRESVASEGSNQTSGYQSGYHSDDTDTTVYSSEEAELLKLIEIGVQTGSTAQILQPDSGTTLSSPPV
# procedure_summary: cell-based or functional assay
In this section, each of the binders is paired with its reported HUVEC survival (n = 2) 1:20 dilution of supernatant (RLU).
experimental_readout: HUVEC survival (n = 2) 1:20 dilution of supernatant (RLU)

binder	value_observed
anti-KDR monoclonal antibody 24C9 (antibody, V domains shown, Fully human mAb from XenoMouse (IgG2 or IgG4 strain); hybridoma supernatant) VH: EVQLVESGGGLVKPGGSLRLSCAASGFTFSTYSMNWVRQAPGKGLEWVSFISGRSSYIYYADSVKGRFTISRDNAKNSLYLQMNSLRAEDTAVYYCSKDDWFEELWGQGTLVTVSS VL: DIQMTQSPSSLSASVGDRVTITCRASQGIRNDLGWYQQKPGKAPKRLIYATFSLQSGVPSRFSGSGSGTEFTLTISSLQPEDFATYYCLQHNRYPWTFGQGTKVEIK	9180
anti-KDR monoclonal antibody 30A1 (antibody, V domains shown, Fully human mAb from XenoMouse (IgG2 or IgG4 strain); hybridoma supernatant) VH: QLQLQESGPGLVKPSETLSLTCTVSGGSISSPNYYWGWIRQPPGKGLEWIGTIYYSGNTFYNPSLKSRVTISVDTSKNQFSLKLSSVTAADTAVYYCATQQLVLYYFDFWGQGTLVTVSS VL: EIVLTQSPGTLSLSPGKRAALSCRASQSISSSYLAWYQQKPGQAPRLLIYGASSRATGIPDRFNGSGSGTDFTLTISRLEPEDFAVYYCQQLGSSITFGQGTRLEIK	9730
anti-KDR monoclonal antibody 33D5 (antibody, V domains shown, Fully human mAb from XenoMouse (IgG2 or IgG4 strain); hybridoma supernatant) VH: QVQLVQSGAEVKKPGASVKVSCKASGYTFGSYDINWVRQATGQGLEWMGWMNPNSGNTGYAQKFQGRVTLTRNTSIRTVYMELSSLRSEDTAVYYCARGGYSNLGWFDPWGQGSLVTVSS VL: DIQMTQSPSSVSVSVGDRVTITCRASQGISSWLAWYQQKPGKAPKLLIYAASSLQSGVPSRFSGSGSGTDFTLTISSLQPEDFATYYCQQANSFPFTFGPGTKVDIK	706

Hey, just so you know, these numbers are from patent US20100260765A1.
